Assay: S. cerevisiae growth modulation with rapamycin, primary screen, strain BY4716, OD600, 96 h (AID 1091); also: test concentration not given here
Conditions: higher = more signal, called active from +8 up or from −8 down
Active and inactive are the calls of the source.
QUANTITY_MEASURED: z-score

COMPOUND: COCCOC(=O)N1C(=O)[C@@]2(c3cc(C#CCCO)ccc31)[C@H](C(=O)Nc1nc3ccccc3s1)[C@H]1C(=O)O[C@H](c3ccccc3)[C@H](c3ccccc3)N1[C@@H]2c1ccc(OCCO)cc1
MEASURED_VALUE: 2.02 (inactive)

COMPOUND: O=C1NC(=O)C2C1C=CC(C(O)Cc1ccccc1)N2Nc1ccc(Cl)cc1Cl (centres undefined)
MEASURED_VALUE: -0.125 (inactive)

COMPOUND: Cc1ccc(S[C@]2(C(=O)NC3CC3)CC(=O)N(C3Cc4ccccc4C3)[C@@H]2c2ccc(CO)cc2)cc1
MEASURED_VALUE: -1.13 (inactive)

Quick one: z-score for O=C1OCC=C[C@H]2OC34C=CCN(c5ccc6ccccc6c5)C(=O)[C@H]3N(CCCCCCO)C(=O)[C@@H]4[C@@H]12 (some centres undefined) ?
-0.806 (inactive)

----------
Biological target: E3 ubiquitin-protein ligase XIAP (Homo sapiens)
Assay: XIAP binders, primary screen, biophysical, small-molecule microarray, fluorescence 635 nm (AID 1181);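 also: score merges 667 nm emission and signal to noise over triplicate slides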
Conditions: small-molecule microarray binding, higher = more signal
Criterion: composite z-score meeting or surpassing -0.008. Met: TRUE. Not met: FALSE.

COMPOUND: Cc1ccc(S[C@]2(C(=O)NC3CC3)CC(=O)N(C3Cc4ccccc4C3)[C@@H]2c2ccc(CO)cc2)cc1
LABEL_VALUE: FALSE
--
COMPOUND: O=C1O[C@H](c2ccccc2)[C@H](c2ccccc2)N2[C@H]1[C@@H](C(=O)Nc1nc3ccccc3s1)[C@]1(C(=O)Nc3ccc(C#CC4(O)CCCCCC4)cc31)[C@H]2c1ccc(OCCO)cc1
LABEL_VALUE: TRUE
--
COMPOUND: COc1ccc([Si](C)(C)[C@@H]2[C@@H](CCO)O[C@]3(C(=O)N(Cc4ccc(N5C(=O)COc6ccccc65)cc4)c4ccccc43)[C@H]2C)cc1
LABEL_VALUE: FALSE
--
COMPOUND: C=CCNC(=O)[C@H]1[C@@H]2C(=O)O[C@@H](c3ccccc3)[C@@H](c3ccccc3)N2[C@@H](c2ccc(OCCO)cc2)[C@]12C(=O)Nc1ccc(C#CC3=CCCCC3)cc12
LABEL_VALUE: TRUE
--
COMPOUND: CCOC(=O)[C@H]1C/C=C/C[C@H](C(=O)OCC)C(=O)O[C@H]2[C@@H](OC)O[C@H](CO)[C@@H](OC(=O)Nc3cccc(F)c3)[C@@H]2OC1=O
LABEL_VALUE: TRUE
--
COMPOUND: C=CCN1C(=O)[C@]2(O[C@H](CCO)[C@@H]([Si](C)(C)c3ccc(OC)cc3)[C@@H]2C)c2cc(N3CCCCC3=O)ccc21
LABEL_VALUE: FALSE

Does CC(C)(C)OC(=O)CC[C@@]1(C(=O)NCC(O)CO)N=C(c2ccc(OCCCO)cc2)O[C@@H]1c1ccccc1N=[N+]=[N-] (some centres not stated) have a reported composite z-score of at least -0.008?
TRUE

Does C[C@]1(C(=O)NC2CC2)c2ccccc2C(=O)N(Cc2cc(C(F)(F)F)cc(C(F)(F)F)c2)[C@H]1c1ccc(CO)cc1 have a reported composite z-score of at least -0.008?
FALSE

Does C=CCC(OC(C)=O)[C@@H]1[C@@H](N(Cc2cccc3ccccc23)C(=O)c2ccc(-c3ccccc3)cc2)c2cc(OCCCO)ccc2N1C(=O)Cc1ccc(OC)cc1 (some centres not stated) have a reported composite z-score of at least -0.008?
TRUE

Does C=CCOC(=O)[C@H]1[C@@H]2C(=O)O[C@@H](c3ccccc3)[C@@H](c3ccccc3)N2[C@@H](c2ccc(OCCOC(=O)[C@H]3C[C@H]4C(=O)N[C@@H](CC(C)C)C(=O)N4[C@H]3c3ccc(O)cc3)cc2)[C@]12C(=O)Nc1ccc(I)cc12 have a reported composite z-score of at least -0.008?
TRUE

Does C=CC[C@@]1(C(N)=O)N=C(c2ccc(OCCCO)cc2)O[C@@H]1c1ccccc1CN=[N+]=[N-] have a reported composite z-score of at least -0.008?
FALSE

Does CC1CC/C=C\[C@H]2OC34C=CCN(c5ccc(Cl)cc5)C(=O)[C@H]3N(CCO)C(=O)[C@]4(C)C2C(=O)O1 (some centres not stated) have a reported composite z-score of at least -0.008?
FALSE

Does CCOC(=O)C[C@H]1[C@H](OC(=O)c2cc3ccccc3oc2=O)[C@@H](NC(=O)Cc2ccc(OC)cc2)c2cc(OCCCO)ccc2N1C(=O)c1ccccc1 have a reported composite z-score of at least -0.008?
TRUE

Does C=CCNC(=O)[C@H]1[C@@H]2C(=O)O[C@@H](c3ccccc3)[C@@H](c3ccccc3)N2[C@@H](c2ccc(OCCO)cc2)[C@]12C(=O)N(C(=O)OCCOC)c1ccccc12 have a reported composite z-score of at least -0.008?
FALSE

Does COc1ccc(CCNC(=O)[C@@]2(C)c3ccccc3C(=O)N(Cc3cc(F)cc(C(F)(F)F)c3)[C@H]2c2ccc(CO)cc2)cc1 have a reported composite z-score of at least -0.008?
TRUE

Does O=C1OCCC/C=C\[C@H]2OC34C=CCN(Cc5ccccc5)C(=O)[C@H]3N(CCCCCCO)C(=O)[C@@H]4C12 (some centres not stated) have a reported composite z-score of at least -0.008?
FALSE

Does COC(=O)[C@@]1(Cc2ccccc2)[C@H]2c3cc(C(=O)N4CCCC4)n(Cc4nc5ccccc5[nH]4)c3C[C@H]2CN1C(=O)c1ccccc1 have a reported composite z-score of at least -0.008?
TRUE

----------
System: wheat germ agglutinin (Triticum aestivum), Alexa647-labelled
Assay: wheat germ agglutinin binders on compound microarrays, profiling panel, artefact control for SMM control-protein annotation, biochemical, small-molecule microarray, 635/667 nm fluorescence (AID 1140);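 also: score merges 667 nm feature emission with signal to noise over triplicate slides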
Conditions: WGA-A647 binding, 635 nm fluorescence, higher = more signal
QUANTITY_MEASURED: composite z-score
Numbers only.

MOLECULE: [N-]=[N+]=Nc1ccccc1C[C@]1(C(=O)NCC(O)CO)N=C(c2ccc(OCCCO)cc2)O[C@H]1c1ccccc1N=[N+]=[N-] (some centres undefined)
MEASURED_VALUE: 0.543

Kindly give each listed record's composite z-score.
1. COc1ccc(CCNC(=O)[C@@]2(C)c3ccccc3C(=O)N(Cc3cc(F)cc(C(F)(F)F)c3)[C@H]2c2ccc(CO)cc2)cc1
2. CS(=O)(=O)CCOC(=O)C1=CC(CCCO)=CC(c2ccc(CN3CCCC3)cc2)N(Cc2cc3c(cc2Br)OCO3)C=C1C(=O)OCCS(C)(=O)=O (centres undefined)

1. 0.606
2. 0.914

Quick one: composite z-score for CN1C2C=C(CCCO)C(C3C(=O)N(C(N)=O)C(=O)C32)C1c1ccc(CN2CCCC2)cc1 (centres undefined) ?
-0.0816

----------
Test system: Chordin-like protein 2 (CHRDL2)
Test: CHRDL2 small-molecule binders, primary screen, biochemical, small-molecule microarray, 635 nm fluorescence (AID 1126);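 also: printed compound slides probed with Chrdl2 protein at 4 µg/mL for 1 h at 4 C; score merges 667 nm emission intensity with signal to noise over three replicate slides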
Settings: small-molecule microarray binding, fluorescence 635 nm; higher = more signal
QUANTITY_MEASURED: composite z-score
Numbers only.

COMPOUND: CCN(CC)c1ccc(N2CC=CC34O[C@@H]5/C=C\CCC(C)OC(=O)C5[C@H]3C(=O)N(C(CO)C(C)C)[C@@H]4C2=O)cc1 (stereo partly drawn)
MEASURED_VALUE: -0.263
//
COMPOUND: C=CCN1C(=O)[C@@]2(O[C@@H](CCO)[C@H]([Si](C)(C)c3ccc(OC)cc3)[C@H]2C)c2cc(NC(=O)c3ccc(OC)cc3)ccc21
MEASURED_VALUE: 0.927
//
COMPOUND: NC(=O)[C@@H]1[C@H]2C(=O)O[C@H](c3ccccc3)[C@H](c3ccccc3)N2[C@H](c2ccc(O)cc2)[C@@]12C(=O)Nc1ccc(C#CC3(O)CCCCCC3)cc12
MEASURED_VALUE: -0.571

Kindly give each listed record's composite z-score.
1. CN(C)C(=O)[C@@]1(Cc2ccccc2CN=[N+]=[N-])N=C(c2ccc(OCCCO)cc2)O[C@H]1c1ccccc1
2. COCCOC(=O)N1C(=O)[C@@]2(c3cc(C#CCCO)ccc31)[C@H](c1ccc(OCCO)cc1)N1[C@H](c3ccccc3)[C@H](c3ccccc3)OC(=O)[C@H]1[C@@H]2C(=O)N1CCN(c2ncccn2)CC1
3. COC(=O)[C@@]1(Cc2ccc(F)cc2)[C@H]2c3cc(C(=O)N4CCCC4)n(Cc4cc(C)n(C)n4)c3C[C@H]2CN1C(=O)c1ccccc1

[-0.285, 0.718, -0.642]

Kindly give each listed record's composite z-score.
1. COCCOC(=O)N1C(=O)[C@@]2(c3cc(C#Cc4ccc(OC)cc4)ccc31)[C@H](C(N)=O)[C@H]1C(=O)O[C@H](c3ccccc3)[C@H](c3ccccc3)N1[C@@H]2c1ccccc1OCCO
2. C#CCNC(=O)[C@H](Cc1ccccc1)NC(=O)CCC(=O)O
3. O=C1O[C@@H](c2ccccc2)[C@@H](c2ccccc2)N2[C@@H](c3ccccc3OCCO)[C@]3(C(=O)Nc4ccc(C#CC5=CCCCC5)cc43)[C@@H](C(=O)Nc3nc4ccccc4s3)[C@H]12
4. COCCCNC(=O)C1N=C(c2ccc(OCCCO)cc2)N(c2ccccc2)O1 (stereo not drawn)
5. COCCOC(=O)N1C(=O)[C@@]2(c3cc(C#CCCO)ccc31)[C@H](C(=O)N1CCc3cc(OC)c(OC)cc3C1)[C@H]1C(=O)O[C@H](c3ccccc3)[C@H](c3ccccc3)N1[C@@H]2c1ccc(O)cc1

[0.565, -0.471, 0.309, -0.289, 0.425]

Kindly give each listed record's composite z-score.
1. COCCOC(=O)N1C(=O)[C@@]2(c3cc(C#CC4=CCCCC4)ccc31)[C@H](C(N)=O)[C@H]1C(=O)O[C@H](c3ccccc3)[C@H](c3ccccc3)N1[C@@H]2c1ccc(OCCO)cc1
2. CCCC=C(CCC)[C@@H](NC(=O)Oc1ccc(F)cc1)c1ccc(C(=O)OC)cc1

1: 0.0151; 2: -0.813
